Target: T1, HLA-DR DRB1*0101 (human)
T1 chain 1: not shown
T1 chain 2: not shown
Assay: radioligand inhibition, purified HLA-DR
Conditions: remark: other sources report otherwise
pIC50: −log10 of the molar value.
quantity measured: pIC50

[
  {
    "binder": "SSYLSGANLNLSCHS [CEA.603 peptide 9012.0137]",
    "assay value": 7.40
  },
  {
    "binder": "KELAVFREKVTEQHR [Peptide 9019.0186]",
    "assay value": 5.69
  }
]

A = KLCIYTDNSIRPEEL [Cyclin D1.123]
B = GARMPCAELVREPGC [Peptide 9019.0181]
IN: Please indicate which item has the smaller measured pIC50: A versus B Let me know the label of the one you choose.
OUT: A
